Measured values drawn from paper PMC7031110 for this set.

TESTED SYSTEM: CaMKIIα (UniProt P11275 1-478)
Sequence (P11275 whole entry): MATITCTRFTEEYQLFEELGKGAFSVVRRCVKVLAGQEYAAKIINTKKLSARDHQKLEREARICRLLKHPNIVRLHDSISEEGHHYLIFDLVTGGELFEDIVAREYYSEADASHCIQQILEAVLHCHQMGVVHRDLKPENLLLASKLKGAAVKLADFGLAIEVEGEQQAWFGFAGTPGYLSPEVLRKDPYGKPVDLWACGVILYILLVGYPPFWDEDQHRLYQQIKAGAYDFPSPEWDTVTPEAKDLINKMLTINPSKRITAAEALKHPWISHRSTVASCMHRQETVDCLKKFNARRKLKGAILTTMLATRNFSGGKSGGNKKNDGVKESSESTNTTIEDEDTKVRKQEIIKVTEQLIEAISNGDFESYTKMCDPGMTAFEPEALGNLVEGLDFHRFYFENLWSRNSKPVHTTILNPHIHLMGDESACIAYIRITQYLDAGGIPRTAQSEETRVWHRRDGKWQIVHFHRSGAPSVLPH
EXPERIMENT DESCRIPTION: fluorescence polarisation
VALUE KIND: Kd (nM)

- TVGKFYATFLIQEYFR [IQ peptide TVGKFYATFLIQEYFR of Cav1.2/Cav1.3]: 31
